Biological target: purified biotin-tagged human CD36 (human, UniProt P16671 30-439, limits assumed, biotin tag, site not stated)
Sequence (P16671 30-439 limits assumed): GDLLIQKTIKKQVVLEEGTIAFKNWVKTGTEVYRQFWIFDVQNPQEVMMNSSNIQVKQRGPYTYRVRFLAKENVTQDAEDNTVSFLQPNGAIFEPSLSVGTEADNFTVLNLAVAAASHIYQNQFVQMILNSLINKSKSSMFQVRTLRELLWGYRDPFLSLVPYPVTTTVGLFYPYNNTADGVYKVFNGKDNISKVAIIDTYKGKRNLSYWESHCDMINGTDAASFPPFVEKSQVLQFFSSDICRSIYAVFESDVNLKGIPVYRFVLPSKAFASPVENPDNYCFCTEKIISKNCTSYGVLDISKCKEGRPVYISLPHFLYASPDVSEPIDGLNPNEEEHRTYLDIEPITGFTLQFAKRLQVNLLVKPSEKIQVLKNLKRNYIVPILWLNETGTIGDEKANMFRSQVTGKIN
Assay: AlphaScreen competition; competitor 1G04 on acceptor beads;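 further: streptavidin donor beads excited at 680 nm release singlet oxygen, and the light signal needs a nearby acceptor bead, with 30 min donor-bead incubation at 25 °C in the dark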
Provide the recorded EC50 for the entries that follow.

# input Fill blank: measured EC50 of the binder 24G04 (antibody, human IgG1, V domains shown, Chimeric: mouse variable regions on human IgG1 LALA (L234A/L235A)) VH: QVQLQQSGAELVKPGASVKLSCKASGYTFTSYWMHWVKQRPGQGLEWIGEIDPSDSHANYNQKFKGKATLTVDKSSSTAYMQLSSLTSEDSAVYYCAPIYYGLDNWGQGTTLTVSS VL: DIVMTQSQKFLSTSVGDRVSVTCKASQNVGTNVAWYQQKPGQSPKVLIYSASYRYSGVPDRFTGSGSGTDFTLTVSNVQSEDLAEYFCQQYNNYPLTFGAGTKLELK is ____.
# output 0.29 nM

# input Same question, 4G04 (antibody, human IgG1, V domains shown, Chimeric: mouse variable regions on human IgG1 LALA (L234A/L235A); also called 04G04; 004G04) VH: QVQLQQPGSELRSPGSSVKLSCKDFDSEVFPIAYMTWVRQKPGHGFEWIGDILPSIGGTIYGEKFEDKATLDADTVSNTAYLELNSLTSEDSAIYYCARDYYGSSYGYFDVWGAGTAVTVSS VL: DIVLTQSQKFMSTSVGDRVSVTCKASQNVGTNVAWYQQKPGQSPKALIYSASYRYSGVPDRFTGSGSGTDFTLTISNVQSEDLAEYFCQQYNSYPYTFGGGTKLEIK this time
# output 0.11 nM

# input Same question, 18G04 (antibody, human IgG1, V domains shown, Chimeric: mouse variable regions on human IgG1 LALA (L234A/L235A); also called 018G04) VH: EVQLQQSGPELVKPGASVKISCETSGHTFTEYTMHWVKQSHGKSLEWIGGIYPNNGATKYNQKFKGKATLTVDKSSSTAYMELRSLTSEDSAVYYCARDRYDVWFAYWGQGTLVTVSA VL: ETTVTQSPASLSMAIGEKVTIRCITSTDIDDDMNWYQQKPGEPPKLLISEGNTLRPGVPSRFSSSGYGTDFVFTIENLLSEDVADYYCLQSDNLPLTFGGGTKLEIK this time
# output 15.6 nM
